- Test system: CCRF-CEM leukemia
- TEST_PROTOCOL: NCI-60 one-dose screen, 48 h
- TEST_SETTINGS: 10 µM unless noted
Compounds without any hit were thinned out: in the full panel of roughly 83,000, 20% have a hit. Calls of active or inactive are those of the source. The calls were made as follows: active = growth percent below 10; inactive = the rest.
Classes to choose from: active, inactive

Past entries and their recorded results:
compound="COc1cc(C2CC(c3cccc(Nc4ccncc4)c3)=NN2c2ccc(Cl)cc2)cc(OC)c1OC (stereo unspecified)" class=active
compound=COc1ccc(-c2nc(SCC(C)C)nc(N/N=C(/C)c3ccc(OC)c(OC)c3)c2C#N)cc1 class=inactive
compound=O=C(O)CCCCCCCCCCCCCCC(=O)O class=inactive

Dear all, I need the recorded test outcome for Cc1ccc2[nH]c(=O)cc(-n3nncc3COc3ccc(C=O)cc3)c2c1 , thank you.
inactive

Dear all, I need the recorded test outcome for C#Cc1cccc(NC(=O)Nc2cccc(N=C=S)c2)c1 , thank you.
inactive

Dear all, I need the recorded test outcome for COc1cc2nc(-c3ccc(C(F)(F)F)cc3)cc(OCCCN3CCCCC3)c2cc1OC , thank you.
inactive

Dear all, I need the recorded test outcome for Nc1c(Cl)cc([N+](=O)[O-])cc1Br , thank you.
inactive

Dear all, I need the recorded test outcome for CN1CCN(CCCOc2ccc3ncnc(Nc4ccc(Oc5cccc(C(F)(F)F)c5)c(Cl)c4)c3c2)CC1 , thank you.
active

Dear all, I need the recorded test outcome for O=C1CCCCCCCCC(O)C(O)CCCC(c2cccs2)O1 (stereo unspecified) , thank you.
inactive

Dear all, I need the recorded test outcome for CC(=O)N1N=C(c2cccc(Nc3ccncc3)c2)CC1c1ccc2c(c1)OCO2 (stereo unspecified) , thank you.
inactive

Dear all, I need the recorded test outcome for COc1ccc2c(/C=C3/C(=O)NC(=S)NC3C)cc(=O)oc2c1 (stereo unspecified) , thank you.
inactive
